MEASURED_TARGET: T1, human FcRH5 protein fragment (soluble) (human, UniProt Q96RD9 16-851)
T1 construct: whole entry named; also called soluble human FcRH5; Human FcRH5 (BIACORE analyte)
T1 sequence: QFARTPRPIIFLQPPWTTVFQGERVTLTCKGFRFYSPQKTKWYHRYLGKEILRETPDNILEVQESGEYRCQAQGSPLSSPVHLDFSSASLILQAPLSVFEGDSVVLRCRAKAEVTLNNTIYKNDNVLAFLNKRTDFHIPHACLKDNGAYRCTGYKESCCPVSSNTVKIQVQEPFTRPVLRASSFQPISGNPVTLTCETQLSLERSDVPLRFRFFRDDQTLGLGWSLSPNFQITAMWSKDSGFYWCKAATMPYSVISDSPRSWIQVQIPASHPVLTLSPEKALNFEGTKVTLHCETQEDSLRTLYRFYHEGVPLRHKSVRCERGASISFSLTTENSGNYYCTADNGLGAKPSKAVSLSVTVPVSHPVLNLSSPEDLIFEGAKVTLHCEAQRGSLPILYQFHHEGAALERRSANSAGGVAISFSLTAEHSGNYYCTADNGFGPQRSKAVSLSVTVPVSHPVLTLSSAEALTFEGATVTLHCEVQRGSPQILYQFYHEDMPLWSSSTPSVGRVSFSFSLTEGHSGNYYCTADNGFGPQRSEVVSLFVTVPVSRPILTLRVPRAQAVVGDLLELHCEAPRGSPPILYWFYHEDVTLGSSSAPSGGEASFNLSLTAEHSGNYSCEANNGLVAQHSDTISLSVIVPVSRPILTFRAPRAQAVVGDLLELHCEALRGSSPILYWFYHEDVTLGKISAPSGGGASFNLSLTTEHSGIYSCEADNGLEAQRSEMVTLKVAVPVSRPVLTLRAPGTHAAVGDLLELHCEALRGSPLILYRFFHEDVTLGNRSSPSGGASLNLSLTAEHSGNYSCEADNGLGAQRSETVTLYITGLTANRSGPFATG
TEST_PROTOCOL: SPR (BIACORE), IgG captured via anti-human IgG, FcRH5 protein fragment as analyte (100 and 500 nM)
Give measured log10 of Kd for each item. Keep answers brief.
Please keep in mind that the values are log10 of Kd expressed in nM.

# BINDER, log10 of Kd
data = [
    ("hu1G7.v1 heavy chain M64I with light chain of hu1G7.v1.6 (antibody, V domains shown, human IgG) VH: EVQLVESGPGLVKPSETLSLTCTVSGFSLTRFGVHWVRQPPGKGLEWLGVIWRGGSTDYNAAFISRLTISKDNSKNQVSLKLSSVTAADTAVYYCSNHYYGSSDYALDNWGQGTLVTVSS VL: DIQMTQSPSSLSASVGDRVTITCKASQDVSNIVVWFQQKPGKAPKLLIYSGYYRYSGVPSRFSGSGSGTDFTLTISSLQPEDFATYYCQQQYQPPYTFGQGTKVEIK", 0.43),
    ("hu1G7.v1 heavy chain W52Y with light chain of hu1G7.v1.6 (antibody, V domains shown, human IgG) VH: EVQLVESGPGLVKPSETLSLTCTVSGFSLTRFGVHWVRQPPGKGLEWLGVIYRGGSTDYNAAFMSRLTISKDNSKNQVSLKLSSVTAADTAVYYCSNHYYGSSDYALDNWGQGTLVTVSS VL: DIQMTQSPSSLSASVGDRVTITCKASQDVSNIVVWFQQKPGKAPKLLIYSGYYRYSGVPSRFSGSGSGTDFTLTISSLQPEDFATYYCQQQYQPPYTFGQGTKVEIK", 2.72),
    ("hu1G7.v1 heavy chain W52L with light chain of hu1G7.v1.6 (antibody, V domains shown, human IgG) VH: EVQLVESGPGLVKPSETLSLTCTVSGFSLTRFGVHWVRQPPGKGLEWLGVILRGGSTDYNAAFMSRLTISKDNSKNQVSLKLSSVTAADTAVYYCSNHYYGSSDYALDNWGQGTLVTVSS VL: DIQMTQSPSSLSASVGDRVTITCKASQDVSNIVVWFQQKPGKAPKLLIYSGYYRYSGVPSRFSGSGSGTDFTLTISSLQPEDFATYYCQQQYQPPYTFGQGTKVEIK", 2.40),
]

Required: log10 of Kd, one value per binder below.
1. hu1G7.v1 heavy chain M64F with light chain of hu1G7.v1.6 (antibody, V domains shown, human IgG) VH: EVQLVESGPGLVKPSETLSLTCTVSGFSLTRFGVHWVRQPPGKGLEWLGVIWRGGSTDYNAAFFSRLTISKDNSKNQVSLKLSSVTAADTAVYYCSNHYYGSSDYALDNWGQGTLVTVSS VL: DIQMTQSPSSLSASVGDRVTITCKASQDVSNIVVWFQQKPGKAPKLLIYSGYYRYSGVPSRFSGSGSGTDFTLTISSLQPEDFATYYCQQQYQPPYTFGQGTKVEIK
2. hu1G7.v1 heavy chain M64L with light chain of hu1G7.v1.5 (antibody, V domains shown, human IgG) VH: EVQLVESGPGLVKPSETLSLTCTVSGFSLTRFGVHWVRQPPGKGLEWLGVIWRGGSTDYNAAFLSRLTISKDNSKNQVSLKLSSVTAADTAVYYCSNHYYGSSDYALDNWGQGTLVTVSS VL: DIQMTQSPSSLSASVGDRVTITCKASQDVSNIVVWFQQKPGKSPKLLIYSGYYRYTGVPSRFSGSGSGTDFTLTISSLQPEDFATYYCQQQFQPPYTFGQGTKVEIK

Reply text:
1: 0.41; 2: 0.36
